src = patent US20220064275A1

Catalogue of pKd values
- system.name: T1, human LRRC33-proTGFβ1 complex (human, UniProt Q86YC3 19-650; P01137 30-390)
- T1 construct: also called hLRRC33-proTGFβ1; hLRRC33
- assay.overview: MSD-SET, solution equilibrium titration
Here pKd is given on a logarithmic scale as minus log10 of the concentration in mol/L.

Ab32 (antibody, IgG4, V domains shown) VH: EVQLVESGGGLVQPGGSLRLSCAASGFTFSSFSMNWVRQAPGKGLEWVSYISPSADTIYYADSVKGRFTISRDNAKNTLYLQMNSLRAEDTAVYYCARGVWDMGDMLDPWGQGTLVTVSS VL: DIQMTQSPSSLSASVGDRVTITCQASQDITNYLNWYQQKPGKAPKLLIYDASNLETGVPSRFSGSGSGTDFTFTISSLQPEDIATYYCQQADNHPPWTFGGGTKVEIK ... 10.06
Ab11 (antibody, IgG4, V domains shown) VH: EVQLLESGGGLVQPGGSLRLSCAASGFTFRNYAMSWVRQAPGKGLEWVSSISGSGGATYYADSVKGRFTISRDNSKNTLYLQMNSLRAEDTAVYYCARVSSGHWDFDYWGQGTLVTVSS VL: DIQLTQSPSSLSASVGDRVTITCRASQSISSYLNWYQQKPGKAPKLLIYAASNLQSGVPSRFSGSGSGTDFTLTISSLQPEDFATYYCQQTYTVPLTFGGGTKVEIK ... 8.20
Ab4 (antibody, IgG4, V domains shown, also called parental lead antibody of Ab6) VH: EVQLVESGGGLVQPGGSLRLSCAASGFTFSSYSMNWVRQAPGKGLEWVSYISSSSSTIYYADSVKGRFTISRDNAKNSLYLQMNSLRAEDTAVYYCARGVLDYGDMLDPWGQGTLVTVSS VL: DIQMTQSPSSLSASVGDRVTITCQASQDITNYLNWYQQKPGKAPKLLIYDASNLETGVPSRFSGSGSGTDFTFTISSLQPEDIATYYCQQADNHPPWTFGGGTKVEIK ... 8.68
Ab31 (antibody, IgG4, V domains shown) VH: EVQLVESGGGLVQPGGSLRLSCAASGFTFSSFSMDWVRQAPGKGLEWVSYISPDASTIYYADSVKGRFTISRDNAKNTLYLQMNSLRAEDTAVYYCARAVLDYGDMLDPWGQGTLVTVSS VL: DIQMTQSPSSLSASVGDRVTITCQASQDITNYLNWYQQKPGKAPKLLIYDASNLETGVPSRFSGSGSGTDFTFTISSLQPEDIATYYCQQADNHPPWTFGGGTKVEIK ... 10.02

Query: Identify measured pKd corresponding to Ab24 (antibody, IgG4, V domains shown) VH: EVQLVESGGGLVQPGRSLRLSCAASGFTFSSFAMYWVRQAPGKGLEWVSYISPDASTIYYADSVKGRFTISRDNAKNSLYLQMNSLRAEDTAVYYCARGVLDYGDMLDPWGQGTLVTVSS VL: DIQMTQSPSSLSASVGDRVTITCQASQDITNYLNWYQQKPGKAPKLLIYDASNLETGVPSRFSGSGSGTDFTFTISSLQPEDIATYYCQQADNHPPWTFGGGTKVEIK
Reply: 9.74
